- test_system: Short transient receptor potential channel 4 (Mus musculus)
- protocol_summary: blockers of DAMGO-evoked TRPC4 calcium flux – cell-based, second round, Fluo4, HEK293 TRPC4beta/mu-opioid, 1 µM, confirmation (AID 2637)
- particulars: at 1 µM
Active and inactive are the calls of the source.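 Rule for the calls: active = calcium signal ratio cut to more than 3 SD under the fully stimulated control mean yet still positive, in both repeats and the primary screen; inactive = the rest.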
Hi! Could you answer with just one of these? 1 (yes) = active, 0 (no) = inactive

Problem: Assay result, entry `O=C(O)c1nn(CC(=O)N2CCN(c3ncc(C(F)(F)F)cc3Cl)CC2)c(=O)c2ccccc12` — outcome?
Result: 0 (no)

Further cases:
Problem: Assay result, entry `COCCCn1c(N)c(-c2nc3ccccc3n2C)c2nc3ccccc3nc21` — outcome?
Result: 0 (no)

Problem: Assay result, entry `O=C(O)CCC(=O)N1CCN(c2nc3ccccc3s2)CC1` — outcome?
Result: 0 (no)

Problem: Assay result, entry O=c1c2ccccc2nc(SCc2ccccc2)n1CC1CCCO1 (configuration not stated) — outcome?
Result: 0 (no)

Problem: Assay result, entry `CCN1CCN(c2c(Cl)cccc2NC(=O)c2cccs2)CC1` — outcome?
Result: 0 (no)

Problem: Assay result, entry CCCCc1nc2ccccc2c(N)c1CCC (tested in a mixture with another compound) — outcome?
Result: 1 (yes)

Problem: Assay result, entry `c1ccc(Nc2ncnc3sc4c(c23)CCC4)cc1` — outcome?
Result: 0 (no)

Problem: Assay result, entry `O=C(C1CC1)N1CCc2cc(S(=O)(=O)NC3CCN(Cc4ccccc4)CC3)ccc21` — outcome?
Result: 0 (no)

Problem: Assay result, entry Cc1cccc(OCCC(=O)NCC(c2ccccc2)N(C)C)c1 (configuration not stated) — outcome?
Result: 0 (no)

Problem: Assay result, entry `C=CCOc1ccc(Br)cc1/C=N/O` — outcome?
Result: 0 (no)
